This collection of values is drawn from PubChem BioAssay.

- assay-remarks: basal S. cerevisiae growth modulation, no modifier, primary screen, OD600, strain BY4716, 24 h, basal condition (AID 1173)
- experimental-context: OD600, 24 h, higher = more signal, called active from +8 up or from −8 down
Label scheme for z-score: lower than -0.02 is condition not met, -0.02 and above is condition met.

| compound | class |
| --- | --- |
| Cc1ccc(S[C@]2(C(=O)NC3CC3)CC(=O)N(Cc3ccccc3)[C@@H]2c2ccc(CO)cc2I)cc1 | condition not met |
| CN1C(=O)C2C=CC(C(O)c3ccco3)N(Nc3ccccc3)C2C1=O (centres undefined) | condition met |

Prompt: Check the entry "COC(=O)c1c(CC[C@@H](CO)NC(=O)NCCn2cc(C3(O)CCCC3)nn2)oc(C(C)=O)c1C(=O)OC" : does z-score equal or exceed -0.02?
Response: condition not met

Prompt: Check the entry "COC(=O)[C@@]1(Cc2ccc(F)cc2)[C@H]2c3cc(C(=O)N(C)C)n(Cc4ccc(Cl)c(C(F)(F)F)c4)c3C[C@H]2CN1C(=O)c1ccccc1" : does z-score equal or exceed -0.02?
Response: condition met

Prompt: Check the entry CCC(CC)C(O)C1C=CC2C(=O)NC(=O)C2N1Nc1ccc(Cl)cc1Cl (centres undefined) : does z-score equal or exceed -0.02?
Response: condition not met

Prompt: Check the entry "O=C(N1CCCCC1)[C@]1(Cc2ccccc2)N=C(c2ccc(OCCCO)cc2)O[C@@H]1c1ccccc1" : does z-score equal or exceed -0.02?
Response: condition not met

Prompt: Check the entry "CC(=O)NCCCC[C@@H]1NC(=O)[C@@H]2C[C@H](C(=O)NCCCCCNC(=O)CS)[C@H](c3cccc(OCCO)c3)N2C1=O" : does z-score equal or exceed -0.02?
Response: condition not met

---

- System: Chordin-like protein 2 (CHRDL2)
- assay-remarks: CHRDL2 small-molecule binders, primary screen, biochemical, small-molecule microarray, 635 nm fluorescence (AID 1126);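 further: printed compound slides probed with Chrdl2 protein at 4 µg/mL for 1 h at 4 C; score merges 667 nm emission intensity with signal to noise over three replicate slides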
- experimental-context: small-molecule microarray binding, fluorescence 635 nm; higher = more signal
measurement-name: composite z-score
Give bare numbers.

Answered cases to consult:
| molecular-string | composite z-score |
| --- | --- |
| CCCC=C(CCC)[C@@H](NC(=O)c1cccs1)c1ccc(C(F)(F)F)cc1 | -0.595 |
| COc1ccc([Si](C)(C)[C@H]2[C@H](CCO)O[C@@]3(C(=O)N(Cc4ccc(N(C=O)c5ccccc5)cc4)c4ccccc43)[C@@H]2C)cc1 | -0.957 |
| CCCC[C@H]1OB(O)C[C@H]2C1=C(COC)Cn1c(=O)n(-c3ccccc3)c(=O)n12 | 0.432 |
| COC(=O)[C@@]1(Cc2ccc(OC)cc2)[C@H]2c3cc(C(=O)N(C)C)n(Cc4ccccn4)c3C[C@H]2CN1C(=O)c1ccccc1 | -0.855 |

// each listed compound needs a value for composite z-score
1. O=C1O[C@H](c2ccccc2)[C@H](c2ccccc2)N2[C@H]1[C@@H](C(=O)N1CCCCCCC1)[C@]1(C(=O)Nc3ccc(C#CCCO)cc31)[C@H]2c1ccccc1OCCO
2. COC(=O)C(CC#Cc1ccc2c(c1)[C@]1(C(=O)N2)[C@H](C(=O)Nc2nc3ccccc3s2)[C@H]2C(=O)O[C@H](c3ccccc3)[C@H](c3ccccc3)N2[C@@H]1c1ccccc1OCCO)C(=O)OC
3. Oc1ccc2cc[n+](Cc3sc4ccccc4c3Cl)cc2c1

Response:
[1.7, -0.154, 0.617]
